Overview of recorded enrichment ratio for various variants
B1: PhoQ; a variant is named by its letters at X, in order, P23837 (parent)
chain: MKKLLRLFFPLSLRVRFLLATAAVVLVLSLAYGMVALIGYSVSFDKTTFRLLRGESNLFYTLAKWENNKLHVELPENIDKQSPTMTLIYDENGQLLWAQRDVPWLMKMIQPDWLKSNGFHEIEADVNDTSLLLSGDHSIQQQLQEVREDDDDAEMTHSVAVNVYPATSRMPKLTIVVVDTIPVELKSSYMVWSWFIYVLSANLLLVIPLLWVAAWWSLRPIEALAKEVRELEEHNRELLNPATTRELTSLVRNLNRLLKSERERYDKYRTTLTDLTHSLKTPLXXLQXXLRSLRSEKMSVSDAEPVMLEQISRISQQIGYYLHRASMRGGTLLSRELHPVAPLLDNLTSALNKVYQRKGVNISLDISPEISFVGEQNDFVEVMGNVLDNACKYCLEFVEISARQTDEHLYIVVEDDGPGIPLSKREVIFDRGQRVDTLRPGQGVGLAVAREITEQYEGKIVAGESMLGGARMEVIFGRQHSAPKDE

# Variants of: B1
# assay_procedure: enrichment ratio after two sorts for PhoP signalling (ratio (wild type AVST 3.29)); higher = more functional
# condition_details: with PhoP (E. coli)
In all, about 140,000 sequences were measured (“enrichment ratio after two sorts for PhoP signalling”: median about 0, highest 2% from about 11 on). The list comes from a sample in which the highest values are over-represented; it also holds close analogues and randomly drawn sequences.
Write no unit; give the number alone.

// known answers, use as guide
INSERT INTO results (variant_name, quantitative_result) VALUES
  ('SEGD', 1.88),
  ('SECI', 28.3),
  ('FGIV', 2.4);

Query: enrichment ratio; subject: `SECL`
18.7

Which enrichment ratio reading was recorded for the variant `SECA` ?
19.7
